# measurement-target: HRas (Homo sapiens, UniProt P01112)
# Construct: N-terminal His-tagged, residues 1-166
# Sequence (P01112 1-166): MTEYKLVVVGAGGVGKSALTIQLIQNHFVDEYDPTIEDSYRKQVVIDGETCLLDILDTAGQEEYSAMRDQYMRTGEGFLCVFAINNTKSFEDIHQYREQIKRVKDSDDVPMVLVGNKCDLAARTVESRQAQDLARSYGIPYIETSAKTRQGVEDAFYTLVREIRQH
# test-method-notes: STD-NMR and native MS of the HRas-GDP-cmp4 ternary complex; the EC50 is from SPR inhibition of RasGRF1 binding to HRas-GDP; mant-nucleotide dissociation/exchange also inhibited
pEC50: −log10 of the molar value.
readout-name: pEC50

sample-smiles | measurement-target | endpoint-result
OC[C@H]1O[C@@H](O[C@H]2[C@H](O)[C@@H](O)[C@H](N(Cc3ccc(O)c(O)c3)OCc3ccccc3)O[C@@H]2CO)[C@H](O)[C@@H](O)[C@H]1O | HRas (Homo sapiens, UniProt P01112) | ~3.77
